Reference for the values: patent US10570179B2

Each entry below lists one item and its recorded clearance value.
test: Plasma pharmacokinetics; format: in vivo, male BALB/c mice; conditions: male, BALB/c, mouse, in vivo, iv
Numbered stars: 1 amine (or outer) side, 2 acyl side, 3 side chain; on linkers, the order of the positions; unused ones are H or OH. Bridge positions count the residues as written; N and C are the ends. Square brackets hold non-standard residues; d marks the D form. Peptide text beside a SMILES is read from it. * marks the point of attachment. Piperazine(2S-CO,4-Me) = CN1CCN[C@H](C(=O)O)C1; Morpholine(3S-CO) = O=C(O)[C@@H]1COCCN1; Phe(3-Me) = Cc1cccc(C[C@H](N)C(=O)O)c1; Pro(4R-Me) = C[C@H]1CN[C@H](C(=O)O)C1; Hyp = O=C(O)[C@@H]1C[C@@H](O)CN1; NH(4-Et-phenyl) = CCc1ccc(N*)cc1; aThr = C[C@H](O)[C@H](N)C(=O)O; CO = O=C([*:1])[*:2]
Please give a number only; it is taken to be in L/h/kg.

• CCc1ccc(NC(=O)N[C@@H](Cc2cccc(C)c2)C(=O)N[C@H]2COC(=O)[C@@H]3C[C@@H](C)CN3C(=O)[C@H](C)NC(=O)[C@@H]3CN(C)CCN3C(=O)[C@@H]3CCCN3C2=O)cc1 [Compound 16] ({NH(4-Et-phenyl)-CO}-[Phe(3-Me)]SP[Piperazine(2S-CO,4-Me)]A[Pro(4R-Me)]; ester 2-C) = 2.66

Then there is this compound:
Qu. What measured clearance goes with CCc1ccc(NC(=O)N[C@@H](Cc2cccc(C)c2)C(=O)N[C@@H]2C(=O)N3C[C@H](O)C[C@H]3C(=O)N3CCOC[C@H]3C(=O)N[C@@H](C)C(=O)N3C[C@H](C)C[C@H]3C(=O)O[C@H]2C)cc1 [Compound 24] ({NH(4-Et-phenyl)-CO}-[Phe(3-Me)][aThr][Hyp][Morpholine(3S-CO)]A[Pro(4R-Me)]; ester 2-C) ?
Ans. 2.58

---

target: S. aureus ClpP (Sa-ClpP) (Staphylococcus aureus, UniProt Q2G036); assay: Casein-BODIPY digestion assay (ClpP activation)
Sequence (Q2G036 whole entry): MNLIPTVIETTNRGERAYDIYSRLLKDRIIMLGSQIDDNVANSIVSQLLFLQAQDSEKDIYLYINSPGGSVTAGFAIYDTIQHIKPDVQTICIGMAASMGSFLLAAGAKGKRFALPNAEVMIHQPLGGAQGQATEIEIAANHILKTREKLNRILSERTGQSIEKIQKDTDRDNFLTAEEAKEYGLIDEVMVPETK
Numbered stars: 1 amine (or outer) side, 2 acyl side, 3 side chain; on linkers, the order of the positions; unused ones are H or OH. Bridge positions count the residues as written; N and C are the ends. Square brackets hold non-standard residues; d marks the D form. Peptide text beside a SMILES is read from it. * marks the point of attachment. Piperazine(2S-CO,4-Me) = CN1CCN[C@H](C(=O)O)C1; NH(1,3-benzodioxol-5-yl) = c1cc2c(cc1N*)OCO2; Phe(3-Cl) = N[C@@H](Cc1cccc(Cl)c1)C(=O)O; Phe(3-Me) = Cc1cccc(C[C@H](N)C(=O)O)c1; X4 = O=C1CN([*:1])[C@H](C(=O)[*:2])CN1; NH(4-Cl-2-F-phenyl) = Fc1cc(Cl)ccc1N*; Pro(4R-Me) = C[C@H]1CN[C@H](C(=O)O)C1; Hyp = O=C(O)[C@@H]1C[C@@H](O)CN1; NH(3-Cl-phenyl) = Clc1cccc(N*)c1; NH(4-Cl-phenyl) = Clc1ccc(N*)cc1; NH(4-Me-phenyl) = Cc1ccc(N*)cc1; aThr = C[C@H](O)[C@H](N)C(=O)O; Pip = O=C(O)[C@@H]1CCCCN1; CO = O=C([*:1])[*:2]
Attribute: pEC50
Convention used: pEC50 is expressed as -log10 of the molar concentration.

* Cc1cccc(C[C@H](NC(=O)Nc2cccc(Cl)c2)C(=O)N[C@@H]2C(=O)N3CCC[C@H]3C(=O)N3CC(=O)NC[C@H]3C(=O)N[C@@H](C)C(=O)N3C[C@H](C)C[C@H]3C(=O)O[C@H]2C)c1 [Compound 76] ({NH(3-Cl-phenyl)-CO}-[Phe(3-Me)][aThr]P[X4]A[Pro(4R-Me)]; ester 2-C) | 5.30
* Cc1cccc(C[C@H](NC(=O)Nc2cccc(Cl)c2)C(=O)N[C@@H]2C(=O)N3C[C@H](O)C[C@H]3C(=O)N3CCCC[C@H]3C(=O)N[C@@H](C)C(=O)N3CCC[C@H]3C(=O)O[C@H]2C)c1 [Compound 60] ({NH(3-Cl-phenyl)-CO}-[Phe(3-Me)][aThr][Hyp][Pip]AP; ester 2-C) | 5.83
* CCc1ccc(NC(=O)N[C@@H](Cc2cccc(C)c2)C(=O)N[C@H]2COC(=O)[C@@H]3C[C@@H](C)CN3C(=O)[C@H](C)NC(=O)[C@@H]3CCCCN3C(=O)[C@@H]3CCCN3C2=O)cc1 | 6.54
* C[C@@H]1C[C@H]2C(=O)O[C@@H](C)[C@H](NC(=O)[C@H](Cc3cccc(Cl)c3)NC(=O)Nc3ccc(Cl)cc3F)C(=O)N3CCC[C@H]3C(=O)N3CCN(C)C[C@H]3C(=O)N[C@@H](C)C(=O)N2C1 [Compound 33] ({NH(4-Cl-2-F-phenyl)-CO}-[Phe(3-Cl)][aThr]P[Piperazine(2S-CO,4-Me)]A[Pro(4R-Me)]; ester 2-C) | 6.70
* Cc1ccc(NC(=O)N[C@@H](Cc2cccc(C)c2)C(=O)N[C@@H]2C(=O)N3C[C@H](O)C[C@H]3C(=O)N3CCN(C)C[C@H]3C(=O)N[C@@H](C)C(=O)N3C[C@H](C)C[C@H]3C(=O)O[C@H]2C)cc1 [Compound 30] ({NH(4-Me-phenyl)-CO}-[Phe(3-Me)][aThr][Hyp][Piperazine(2S-CO,4-Me)]A[Pro(4R-Me)]; ester 2-C) | 6.54
* Cc1cccc(C[C@H](NC(=O)Nc2ccc3c(c2)OCO3)C(=O)N[C@H]2COC(=O)[C@@H]3C[C@@H](C)CN3C(=O)[C@H](C)NC(=O)[C@@H]3CN(C)CCN3C(=O)[C@@H]3CCCN3C2=O)c1 [Compound 17] ({NH(1,3-benzodioxol-5-yl)-CO}-[Phe(3-Me)]SP[Piperazine(2S-CO,4-Me)]A[Pro(4R-Me)]; ester 2-C) | 5.58

Qu. Using the record for Cc1cccc(C[C@H](NC(=O)Nc2ccc(Cl)cc2)C(=O)N[C@@H]2C(=O)N3C[C@H](O)C[C@H]3C(=O)N3CCCC[C@H]3C(=O)N[C@@H](C)C(=O)N3C[C@H](C)C[C@H]3C(=O)O[C@H]2C)c1 [Compound 61] ({NH(4-Cl-phenyl)-CO}-[Phe(3-Me)][aThr][Hyp][Pip]A[Pro(4R-Me)]; ester 2-C) , report its pEC50.
Ans. 6.57
